Tested on: HT29 colon
Assay: NCI tumour cell line growth inhibition, 48 h; in the data active = GI50 below about 0.43 µM; inactive = the rest
Outcome field: choose from active, inactive

Example results:
[[record]]
compound = "Cc1c2cnccc2c(C)c2c1c1cc(CO)ccc1n2C"
label_value = "active"

[[record]]
compound = "CC(=O)c1cc2c(c(O)c1C)C(=O)C(=O)c1c(O)cccc1-2"
label_value = "active"

[[record]]
compound = "O[N+]1=CC=CCC1=S.On1ccccc1=S.[Zn]"
label_value = "active"

[[record]]
compound = "Clc1ccc(C2c3ccccc3-c3nccn32)c(Cl)c1 (stereo not given)"
label_value = "inactive"


Turning now to a further record.
For C[C@]12CCC3c4ccc(O)cc4CCC3C1CC[C@@]2(O)C#Cc1ccc(C#C/C=C\C#Cc2ccccc2N)cc1 (stereo not given in full) , what call appears in the results of this test? inactive

* * *

Tested on: SNB-19 CNS
Assay: NCI tumour cell line growth inhibition, 48 h
parameter.measured: TGI

[[record]]
molecule = "O[N+]1=CC=CCC1=S.On1ccccc1=S.[Zn]"
parameter_measured = "TGI"
recorded_result = "2.8 µM"


// query TGI value for entry "Cc1nc2cc(-n3c(-c4ccc(F)cc4)nc4ccccc4c3=O)ccc2n1Cc1ccccc1" 26.8 µM

// query TGI value for entry "O=c1c2cccnc2[nH]c2ccc3[nH]ncc3c12" > 10 µM

// query TGI value for entry "Cc1ccc(/C=C2\N=C(N3CCOCC3)NC2=O)cc1" > 100 µM

// query TGI value for entry "O=C(CON1C(=O)c2ccccc2C1=O)c1ccccc1" > 100 µM

// query TGI value for entry C=C(C)C(=O)OC1CC2(C)OC(=CC2=O)C(C)CC2OC(=O)C(=C)C12 (stereo not drawn) 39.2 µM

// query TGI value for entry "Cc1c2cnccc2c(C)c2c1c1cc(CO)ccc1n2C" 2.37 µM

// query TGI value for entry "COc1cc(OC)cc(C(=O)NC2=C(Cl)C(=O)c3ccccc3C2=O)c1" 21.9 µM

// query TGI value for entry Nc1nc2c(ncn2CC2CCC(CO)C2)c(=O)[nH]1 (stereo not drawn) > 100 µM

// query TGI value for entry "O=C1C=CC(=O)c2ccc(=O)ccc21" 27.1 µM

// query TGI value for entry O=C(CCN1CCCC1)CC(c1ccccc1)c1c(O)c2ccccc2oc1=O (stereo not drawn) > 100 µM

// query TGI value for entry "NC(N)=C1CN(C2CCCCC2)C(=O)NC1=O" > 100 µM

* * *

System: SF-268 CNS
Assay: NCI tumour cell line growth inhibition, 48 h
# TGI per record follows
Numbers only here, please. The scale is µM.

Answered examples (3):
[[record]]
molecule = "CC(C)[C@]12O[C@H]1[C@@H]1O[C@]13[C@]1(O[C@H]1C[C@H]1C4=C(CC[C@@]13C)C(=O)OC4)[C@@H]2OC(=O)CN(C)C"
recorded_result = 0.367

[[record]]
molecule = "Cc1nc2cc(-n3c(-c4ccc(F)cc4)nc4ccccc4c3=O)ccc2n1Cc1ccccc1"
recorded_result = 10.1

[[record]]
molecule = "CC(C)C(Br)CC/C(CBr)=C(\\Cl)CCl (stereo not given)"
recorded_result = 27.9


// query TGI value for entry Clc1ccc(C2c3ccccc3-c3nccn32)c(Cl)c1 (stereo not given) 27.4

// query TGI value for entry Nc1cc2c(nc3c4ccccc4c(N)cc3[n+]2-c2cccc3ccccc23)c2ccccc12 (tested in a mixture with another compound) 18.3

* * *

# TGI per record follows
Tested on: LOX IMVI melanoma
Experiment: NCI tumour cell line growth inhibition, 48 h

Answered examples (8):
[[record]]
compound = "Cc1cc(C)c(OC(=O)Nc2cccc3ccccc23)c(-c2ccccc2)c1"
target_under_test = "LOX IMVI melanoma"
recorded_result = "> 100 µM"

[[record]]
compound = "C[C@]12CC[C@@H]3c4cc(Br)c(O)c(Br)c4CC[C@H]3[C@@H]1CCC2=O"
target_under_test = "LOX IMVI melanoma"
recorded_result = "71.9 µM"

[[record]]
compound = "CC1=C(C(=O)CC(=O)C(=O)Nc2ccccc2C(F)(F)F)Sc2ccccc2N1"
target_under_test = "LOX IMVI melanoma"
recorded_result = "> 100 µM"

[[record]]
compound = "N=C(N)SCCc1ccncc1"
target_under_test = "LOX IMVI melanoma"
recorded_result = "> 100 µM"

[[record]]
compound = "C=CC(=O)NC(O)(C(=O)OCC)C(F)(F)F (stereo not given)"
target_under_test = "LOX IMVI melanoma"
recorded_result = "> 100 µM"

[[record]]
compound = "Cc1cc(C)c2c(=O)n(CN3CCC(C#N)(c4ccccc4)CC3)sc2n1"
target_under_test = "LOX IMVI melanoma"
recorded_result = "69.9 µM"

[[record]]
compound = "CO[C@H](C(=O)[C@@H](O)[C@@H](C)O)[C@@H]1Cc2cc3cc(O[C@H]4C[C@@H](O[C@H]5C[C@@H](O)[C@H](O)C(C)O5)[C@H](O)C(C)(O)O4)cc(O)c3c(O)c2C(=O)[C@H]1O[C@H]1C[C@@H](O[C@H]2C[C@@H](O[C@H]3C[C@@H](OC)[C@H](O)C(C)O3)[C@@H](O)C(C)O2)[C@H](O)C(C)O1 (stereo not given in full)"
target_under_test = "LOX IMVI melanoma"
recorded_result = "> 16.8 µM"

[[record]]
compound = "O=C(/C(=C\\c1ccccc1)CN1CCOCC1)c1ccc(Br)cc1"
target_under_test = "LOX IMVI melanoma"
recorded_result = "3.22 µM"


// query TGI value for entry CC1=CC2CCC1(C)C/C2=C(/C)OC=O (stereo not given) > 100 µM

// query TGI value for entry "Cc1cc(Nc2cccc(F)c2)nc(NCc2ccccc2)n1" 28.7 µM

// query TGI value for entry "CCCCC#COS(=O)(=O)c1ccc(C)cc1" > 100 µM

* * *

System: SNB-75 CNS
Test: NCI tumour cell line growth inhibition, 48 h
parameter.measured: TGI

// query TGI value for entry "O[N+]1=CC=CCC1=S.On1ccccc1=S.[Zn]" 6.85 µM

// query TGI value for entry "COc1cccc(/C=N/Nc2ncnc3c2cnn3-c2cccc(OC)c2)c1" > 25 µM

// query TGI value for entry "Cn1c(=O)cc(NNc2ccccc2)[nH]c1=O" > 100 µM

// query TGI value for entry "CN=C(NN)NS(=O)(=O)c1cc(C)c(Cl)cc1S" > 100 µM

// query TGI value for entry "Cc1cccc(C)c1NC(=O)/C(Cc1nc2ccc([N+](=O)[O-])cc2[nH]c1=O)=N\NC(N)=O" > 100 µM

* * *

System: MCF7 breast
Assay: NCI tumour cell line growth inhibition, 48 h
parameter.measured: TGI

Answered examples (8):
[[record]]
molecule = "CCOC(=O)/C=C/C1=C(c2csc3ccccc23)c2ccccc2CC1"
target_under_test = "MCF7 breast"
parameter_measured = "TGI"
recorded_result = "> 100 µM"

[[record]]
molecule = "CC(=O)N=C1C=C(NC(C)=O)C(=O)c2ccccc21"
target_under_test = "MCF7 breast"
parameter_measured = "TGI"
recorded_result = "3.46 µM"

[[record]]
molecule = "CC1(C)C(=O)/C(=C\\c2ccccn2)C[C@]2(C)[C@H]3CC[C@@H]4[C@@H](C(=O)/C=C/c5ccccn5)CC[C@@]4(C)[C@]3(C)CC[C@@H]12"
target_under_test = "MCF7 breast"
parameter_measured = "TGI"
recorded_result = "3.89 µM"

[[record]]
molecule = "COC(=O)C(N)CSC(c1ccccc1)(c1ccccc1)c1ccccc1 (centres undefined)"
target_under_test = "MCF7 breast"
parameter_measured = "TGI"
recorded_result = "> 100 µM"

[[record]]
molecule = "Cn1ccnc1Sc1ccc(/C=N/NC(=O)c2ccccc2[N+](=O)[O-])cc1[N+](=O)[O-]"
target_under_test = "MCF7 breast"
parameter_measured = "TGI"
recorded_result = "> 100 µM"

[[record]]
molecule = "COc1ccc(C2C=C(c3ccccc3)Nc3nnnn32)cc1 (centres undefined)"
target_under_test = "MCF7 breast"
parameter_measured = "TGI"
recorded_result = "84.4 µM"

[[record]]
molecule = "CCCc1cc(=O)oc2c3c(c4c(c12)OC(C)(C)CC4)O[C@H](C)[C@@H](C)[C@H]3O"
target_under_test = "MCF7 breast"
parameter_measured = "TGI"
recorded_result = "43.2 µM"

[[record]]
molecule = "COC(=O)C12CCC(C(F)(F)C1=O)C2(C)C (centres undefined)"
target_under_test = "MCF7 breast"
parameter_measured = "TGI"
recorded_result = "> 100 µM"


// query TGI value for entry "CC(C)[C@]12O[C@H]1[C@@H]1O[C@]13[C@]1(O[C@H]1C[C@H]1C4=C(CC[C@@]13C)C(=O)OC4)[C@@H]2OC(=O)CN(C)C" > 100 µM

// query TGI value for entry "COc1ccc(-c2cc(-c3ccc(Nc4ccnc5cc(C(F)(F)F)ccc45)cc3)nc(N)c2C#N)cc1" > 100 µM

// query TGI value for entry "COc1cccc2c(Nc3ccc(S(=O)(=O)Nc4ncccn4)cc3)c3ccc([N+](=O)[O-])cc3nc12" > 100 µM

// query TGI value for entry CNC(=O)N(C1=NCC(C)S1)c1ccc(C)c(C)c1 (centres undefined) 26.6 µM
